molecular target: Galanin receptor type 2 (Homo sapiens) (UniProt O43603); experiment: GALR2 receptor agonists, primary screen, cell-based (AID 803); details: GALR2-expressing cells, agonist activation read-out; at 5.6 µM; hits give high values;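 also: 0% = vehicle buffer wells and 100% = reference agonist at full effect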
Sequence (O43603 whole entry, looked up): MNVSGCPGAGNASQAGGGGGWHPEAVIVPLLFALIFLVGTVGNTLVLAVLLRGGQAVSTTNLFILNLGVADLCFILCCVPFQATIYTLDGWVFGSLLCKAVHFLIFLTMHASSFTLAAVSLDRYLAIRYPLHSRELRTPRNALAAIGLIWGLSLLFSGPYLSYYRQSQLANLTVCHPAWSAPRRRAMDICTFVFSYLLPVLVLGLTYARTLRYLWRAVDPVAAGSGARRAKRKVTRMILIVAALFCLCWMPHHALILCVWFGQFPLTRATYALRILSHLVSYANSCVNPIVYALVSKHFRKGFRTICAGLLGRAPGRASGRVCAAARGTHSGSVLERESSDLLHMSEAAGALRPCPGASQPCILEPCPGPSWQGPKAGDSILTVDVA
About 680 (0.49%) of roughly 140,000 compounds were called active. The list comes from a sample in which actives are over-represented; it also holds close analogues and randomly drawn compounds.
Provide the reported activation of each item.
Numeric answer only, unit % assumed.

Entry Cc1ccsc1C(C(=O)NC1CCCCC1)N(C(=O)Cc1cccs1)C1CC1 (centres undefined) — recorded activation = 0.48

Lab note: measured activation of Cc1cnc(NC(=O)CSc2nnc(-c3ccc(Cl)cc3Cl)n2N)s1 was -1.9

Sure, the documented activation for O=[N+]([O-])c1ccccc1SNc1ccccn1 is 10.3

Measured activation, CCN(C(=O)CSc1ncn[nH]1)c1cccc2ccccc12 : 144

Notebook: Cc1cccc(C(=O)NC(=S)N2CCN(c3ccc([N+](=O)[O-])cc3)CC2)c1 , activation read as 0.09

Entry under test: CC(=O)N(Cc1cccs1)C1CCOC(C)(C)C1 (centres undefined) . Its activation was 36.2

// recorded activation for COC(=O)CNC(=O)c1ccccc1[N+](=O)[O-] : -2.69

Reported activation ( O=C(O)CCC(=O)N(Cc1cccs1)Cc1cccs1 ) = 0.14

The reported value for CCn1c(SCc2ccc(C)cc2)nnc1-c1nn(-c2ccccc2)ccc1=O in terms of activation is -0.25

// sample C=CCn1c(P(C)(=O)O)nc2ccccc21 , its activation was -0.16

Reported activation ( COc1cccc(C(=O)c2cc3ccc(O)cc3oc2=O)c1 ) = 2.29

Value of activation reported for the compound Cn1c(=O)oc2cc(S(=O)(=O)N3CCC(C(=O)Nc4ccc(OC(F)(F)F)cc4)CC3)ccc21 is 9.92

For this compound ( O=c1oc2cc(O)ccc2cc1-c1ccc(F)cc1 ), measured activation is 14.9

Memo: CCC1C(=O)c2ccccc2N(C)C1=O (centres undefined) , reported activation: -2.42

activation reading for Cc1ccc(C(=O)NC(=S)NCCN2CCOCC2)cc1 : -1.71

Reported activation of Cc1ccc(C)c(N2CCN(S(=O)(=O)c3ccc4c(c3)oc(=O)n4C)CC2)c1 : -1.17

get_value(item= Cc1ccc(CCC(=O)Nc2ncc(Cc3cc(Cl)ccc3Cl)s2)o1 , readout=activation) returns 8.73

Consider O=C1N(c2ccc(Cl)cc2)C(c2ccc(Cl)cc2)N2CCCN12 (centres undefined) . Its measured activation is -0.59

Note to self: activation recorded for CC(=O)CCC(=O)c1ccc2ccccc2c1 was -2.23

Sure, the documented activation for O=S(=O)(Nc1ccccn1)c1ccc(Oc2ccccc2)cc1 is -1.45

Value of measured activation for the entry O=C(CSc1ncn[nH]1)Nc1ccnc2ccccc12 : -2.63

// recorded activation for Cc1cccn2c(=O)c3cc(C(=O)N4COCC4(C)C)n(C)c3nc12 : 0.31

Entry Cc1cc(C)nc(-n2ncc3c2CC(c2ccc(C(C)C)cc2)CC3=O)n1 (centres undefined) , activation reported as 0.11

Per the record, COc1ccc(/C(N)=N/OC(=O)CCCc2ccccc2)cc1 has activation of -0.21
